These data points were gathered from PubChem BioAssay (Tox21).

assay: qHTS assay to identify small molecule antagonists of the thyroid receptor (TR) signaling pathway (AID 743065); conditions: GH3.TRE-Luc, T3-stimulated luciferase inhibition, 23.5 h; series mostly up to 70.3 µM; note: nearly all actives have a fitted effect of over 55% in size
Results filed as inconclusive are left out. Activity calls are given as the source filed them. Calls come from the whole dose curve; as a rule, active = well fitted inhibition curve with a large enough effect in the repeat runs; inconclusive = weak or mixed curves; inactive = no such curve, though single readings can be large or run the other way.
Outcome (select one): yes for active, no for inactive

Worked examples, 5 compounds total:
- compound: "CN(C)CCCCCCN(C)C (tested in a mixture with another compound)"
  class-name: "no"
- compound: "COC(=O)[C@@H]1[C@H]2CC[C@@H](C[C@H]1OC(=O)c1ccccc1)N2C"
  class-name: "no"
- compound: "Cc1cccc(C(C)c2cnc[nH]2)c1C (stereo not given)"
  class-name: "no"
- compound: "O=C(OCCN1CCCCC1)C(O)(c1ccccc1)c1ccccc1"
  class-name: "no"
- compound: "C[C@H]1CC[C@]2(NC1)O[C@H]1C[C@H]3[C@@H]4CC[C@H]5C[C@@H](O)CC[C@]5(C)[C@H]4CC[C@]3(C)[C@H]1[C@@H]2C"
  class-name: "yes"

Input: Could you kindly confirm the outcome this assay logged for CC1(C)[C@H](C=C(Cl)Cl)[C@H]1C(=O)OCc1c(F)c(F)cc(F)c1F ?
Output: no

Input: State the result this test recorded for C1CN(P2(N3CC3)=NP(N3CC3)(N3CC3)=NP(N3CC3)(N3CC3)=N2)CCO1 (stereo not given) .
Output: no

Input: Tell me the assay call for C=C[C@H]1CN2CC[C@H]1C[C@@H]2[C@@H](O)c1ccnc2ccccc12 please.
Output: no

Input: Name the outcome recorded for Cc1cc(C)cc(C(=O)OC2C[C@H]3CC[C@@H](C2)N3C)c1 (stereo not given in full) in the assay.
Output: yes

Input: Field: outcome | Entry: CC(=O)OC1CN2CCC1CC2 (stereo not given)
Output: no

###

experiment: qHTS assay to identify small molecule agonists of the estrogen related receptor signaling pathway with the pleiotropic PPARgamma coactivator (PGC) (AID 1224823); conditions: ERR/PGC reporter cell line, luciferase agonist mode; series mostly up to 46.1 µM
Inconclusive results are not listed. Active and inactive are the calls of the source. The call rests on the fitted dose curve; in most records, active means well fitted activation curve with a large enough effect in the repeat runs; inconclusive means weak or mixed curves; inactive means no such curve, though single readings can be large or run the other way.
assay-metric: outcome

Example entries and their recorded answers appear below.
- compound: "NCCc1c[nH]c2ccccc12"
  outcome: "inactive"
- compound: "CCCN(CCC)[C@@H]1CCc2cccc(O)c2C1"
  outcome: "inactive"
- compound: "OCc1cnc[nH]1"
  outcome: "inactive"
- compound: "NCCc1c[nH]c2ccc(C(N)=O)cc12"
  outcome: "inactive"
- compound: "CCCN1CCO[C@@H]2c3cc(O)ccc3OC[C@H]21"
  outcome: "inactive"
- compound: "c1ccc(CCCN2CCN(CCOC(c3ccccc3)c3ccccc3)CC2)cc1"
  outcome: "inactive"

Input: Answer with the recorded outcome for the compound listed here: CN1CC[C@@]2(C)c3cc(O)ccc3N(C)C12 (stereo not given in full)
Output: inactive

Input: Give outcome for the following compound: NC(CCCCCP(=O)(O)O)C(=O)O (stereo not given)
Output: inactive

Input: Identify the reported outcome for the following entry. COc1ccc(CNC(=O)/C=C/c2ccc3[nH]cc(CCN(C)C)c3c2)cc1
Output: inactive

Input: Let me know recorded outcome for CCCN1CC[C@@H]2c3cc(O)ccc3CC[C@@H]21 , thanks.
Output: inactive

Input: Look up and report measured outcome for this entry: CC(C)(C)c1cc(C=C(C#N)C#N)cc(C(C)(C)C)c1O
Output: inactive

Input: Identify outcome associated with the compound NC(=O)COc1c(F)cc(SCCNS(=O)(=O)c2ccccc2)cc1F
Output: inactive

Input: Assign outcome to the following record: S=C(NC1CCCCC1)N1CCC(c2cnc[nH]2)CC1
Output: inactive

Input: Query outcome for NC(CP(=O)(O)O)C(=O)O (stereo not given)
Output: inactive

Input: Look up and state reported outcome for CCCN(CCC)[C@H]1CCc2c(F)ccc(O)c2C1
Output: inactive
